Listed here are compounds together with their documented inhibition.
Measurement Target: Galanin receptor type 3 (Homo sapiens)
Assay Remarks: GalR3 antagonists in HEK293 cells, primary screen, cell-based, fluorescence readout (AID 651719);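 further: forskolin and galanin both at EC90 stimulate the cells; cAMP rise reported by CNG channel membrane potential dye signal; 0% = forskolin plus galanin with DMSO and 100% = forskolin alone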
Condition Context: HEK293 GalR3-CNG cAMP membrane potential fluorescence; at 3 µM; active compounds read high; galR3 body fused to GalR1 C-terminus
The whole screen tested about 360,000 compounds, of which about 1,600 (0.44%) were called active. Only a selection was taken, and actives are over-represented in it overall.
Please respond with the number in % and leave the unit unwritten.

For orientation, consider the following solved cases.
[
  {
    "Compound": "CCCCNc1cccc2c1S(=O)(=O)N[C@@H](C)CO2",
    "Unit Name": "%",
    "Endpoint Value": 0.83
  },
  {
    "Compound": "COc1ccc(NS(=O)(=O)c2ccc(NC(=O)c3ccc(N(C)S(C)(=O)=O)cc3)cc2)cc1",
    "Unit Name": "%",
    "Endpoint Value": 82.7
  },
  {
    "Compound": "C=CCN=C1NC(c2ccccc2)C(C(=O)OC)=C(C)N1Cc1ccc(C(F)(F)F)cc1 (stereo not given)",
    "Unit Name": "%",
    "Endpoint Value": -6.78
  },
  {
    "Compound": "O=C(C(=O)N1CCC(CNC(=O)c2cccnc2Cl)CC1)c1cccs1",
    "Unit Name": "%",
    "Endpoint Value": -2.12
  }
]

Let's switch to this compound now.
Entry COc1ccc(-c2ccc3c(n2)CCCN3S(=O)(=O)c2ccc(C)cc2)cc1 , Galanin receptor type 3 (Homo sapiens) data, inhibition value: -6.68

====

Measurement Target: Galanin receptor type 3 (Homo sapiens)
Assay Remarks: GalR3 antagonists in HEK293 cells, primary screen, cell-based, fluorescence readout (AID 651719);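 further: forskolin and galanin both at EC90 stimulate the cells; cAMP rise reported by CNG channel membrane potential dye signal; 0% = forskolin plus galanin with DMSO and 100% = forskolin alone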
Condition Context: HEK293 GalR3-CNG cAMP membrane potential fluorescence; at 3 µM; active compounds read high; galR3 body fused to GalR1 C-terminus
Screen size: about 360,000 compounds; about 1,600 (0.44%) were called active. For the sample, actives were picked, then their nearest neighbours and some compounds at random.
Listed here are compounds together with their documented inhibition.
Please respond with the number in % and leave the unit unwritten.

For orientation, consider the following solved cases.
[
  {
    "Smiles Notation": "COc1cccc(CC(=O)N2CCN(C(=O)C(=O)c3cccc(C(F)(F)F)c3)CC2)c1",
    "Measurement Target": "Galanin receptor type 3 (Homo sapiens)",
    "inhibition / %": 1.16
  },
  {
    "Smiles Notation": "CCOc1ccc(Br)cc1CSC(=N)N",
    "Measurement Target": "Galanin receptor type 3 (Homo sapiens)",
    "inhibition / %": 58.7
  },
  {
    "Smiles Notation": "COc1cccc(CNC(=O)[C@H]2CCCN2C(=O)[C@H]2CCCN2C(=O)c2ccc(F)cc2)c1",
    "Measurement Target": "Galanin receptor type 3 (Homo sapiens)",
    "inhibition / %": -5.33
  },
  {
    "Smiles Notation": "CCOc1ccc(Br)cc1S(=O)(=O)N1CCC(C(=O)O)CC1",
    "Measurement Target": "Galanin receptor type 3 (Homo sapiens)",
    "inhibition / %": -0.52
  },
  {
    "Smiles Notation": "CC(C)(C)NCc1cc(Br)ccc1OC1CCCC1",
    "Measurement Target": "Galanin receptor type 3 (Homo sapiens)",
    "inhibition / %": -9.54
  }
]

Entry COC(=O)c1ccc(CN2C(=O)[C@]3(OCCC=C[C@H]3C)c3c(Br)cccc32)cc1 , Galanin receptor type 3 (Homo sapiens) data, inhibition value: -6.8

====

Measurement Target: Galanin receptor type 3 (Homo sapiens) (UniProt O60755)
Sequence (O60755 1-299 limits assumed): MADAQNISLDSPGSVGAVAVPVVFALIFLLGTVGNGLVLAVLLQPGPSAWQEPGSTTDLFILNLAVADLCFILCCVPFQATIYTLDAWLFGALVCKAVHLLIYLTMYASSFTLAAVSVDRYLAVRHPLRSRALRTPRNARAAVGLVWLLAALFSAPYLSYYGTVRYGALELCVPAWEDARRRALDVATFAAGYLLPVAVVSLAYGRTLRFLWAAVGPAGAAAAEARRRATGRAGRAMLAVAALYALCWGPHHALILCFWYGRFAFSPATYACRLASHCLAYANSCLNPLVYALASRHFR
Assay Remarks: GalR3 antagonists in HEK293 cells, primary screen, cell-based, fluorescence readout (AID 651719);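 further: forskolin and galanin both at EC90 stimulate the cells; cAMP rise reported by CNG channel membrane potential dye signal; 0% = forskolin plus galanin with DMSO and 100% = forskolin alone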
Condition Context: HEK293 GalR3-CNG cAMP membrane potential fluorescence; at 3 µM; galR3 body fused to GalR1 C-terminus
Screen size: about 360,000 compounds; about 1,600 (0.44%) were called active.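 Rule for the calls: active = inhibition above the screen-wide average plus 3 SD (cut at about 13% in these data); inactive = the rest.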 This excerpt belongs to a sample that is enriched for actives.
Write down one outcome, taken from active, inactive

Some entries whose results are on file:
[
  {
    "Molecule": "COc1ccc(C2=CN(Cc3ccccc3)C(c3ccc(OC)cc3)CC2=O)cc1 (stereo not drawn)",
    "Measurement Target": "Galanin receptor type 3 (Homo sapiens) (UniProt O60755)",
    "Group Label": "inactive"
  },
  {
    "Molecule": "COc1ccc(CC(=O)Nc2ccccc2NC(=O)c2ccco2)cc1OC",
    "Measurement Target": "Galanin receptor type 3 (Homo sapiens) (UniProt O60755)",
    "Group Label": "inactive"
  },
  {
    "Molecule": "CCCNC(=O)C1(C)CCN1C(=O)Cc1ccc(-c2ccccc2)cc1 (stereo not drawn)",
    "Measurement Target": "Galanin receptor type 3 (Homo sapiens) (UniProt O60755)",
    "Group Label": "inactive"
  }
]

Q. Can you look up the reported call for CCCOc1ccc(Cc2c(Cl)nc(SC)nc2NC)cc1 for me?
A. active

Q. Can you look up the reported call for CCN(CC(=O)NCc1ccc(Cl)cc1)C(=O)CSc1ccccc1 for me?
A. active

Q. Can you look up the reported call for COc1cc(C(=O)Nn2c(O)c(C3=c4ccccc4=NC3=O)sc2=S)ccc1O for me?
A. active

Q. Can you look up the reported call for NC(=O)c1ncn([C@@H]2O[C@H](C(=O)O)[C@@H](O)[C@H]2O)n1 for me?
A. inactive

Q. Can you look up the reported call for CCCOc1ccc(Cn2c(O)cc(=O)[nH]c2=O)cc1 for me?
A. inactive

Q. Can you look up the reported call for COc1cc(C(=S)NC2CCCCC2)ccc1O for me?
A. inactive

Q. Can you look up the reported call for CCN(CC(=O)NCc1ccc(Cl)cc1)C(=O)c1c(C)noc1C for me?
A. inactive

Q. Can you look up the reported call for COc1ccc(NC(=O)c2ccco2)cc1NC(=O)c1ccc(C#N)cc1F for me?
A. inactive

Q. Can you look up the reported call for O=C(Nc1ccccc1Cl)c1ccccc1S(=O)(=O)c1ccccc1[N+](=O)[O-] for me?
A. inactive

Q. Can you look up the reported call for c1coc(CNc2ncnc3ccccc23)c1 for me?
A. active

Q. Can you look up the reported call for C#Cc1ccc(NC(=O)C2(C)CCN2C(=O)Cc2ccc(-c3ccccc3)cc2)cc1 (stereo not drawn) for me?
A. active

Q. Can you look up the reported call for CC(C)(C)n1nc(C2CC2)c(Br)c1NC(=O)c1ccccc1F for me?
A. inactive

Q. Can you look up the reported call for CN(CC(=O)Nc1ccc(OC(F)(F)F)cc1)C(=O)C1CCC1 for me?
A. inactive

Q. Can you look up the reported call for COC(=O)C(C(=O)OC)c1ccccc1NS(=O)(=O)c1cccc2ccccc12 for me?
A. inactive

Q. Can you look up the reported call for CCCOc1ccc(Cc2c(O)nc(SC)[nH]c2=O)cc1C for me?
A. inactive

Q. Can you look up the reported call for CC1(C(=O)NS(=O)(=O)c2ccccc2)CCN1C(=O)Cc1ccc(-c2ccccc2)cc1 (stereo not drawn) for me?
A. inactive

Q. Can you look up the reported call for COC(=O)Cc1ccc(OCC(=O)Nc2ccc(OC(F)(F)F)cc2)cc1 for me?
A. inactive

====

Measurement Target: Galanin receptor type 3 (Homo sapiens)
Assay Remarks: GalR3 antagonists in HEK293 cells, primary screen, cell-based, fluorescence readout (AID 651719);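 further: forskolin and galanin both at EC90 stimulate the cells; cAMP rise reported by CNG channel membrane potential dye signal; 0% = forskolin plus galanin with DMSO and 100% = forskolin alone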
Condition Context: HEK293 GalR3-CNG cAMP membrane potential fluorescence; at 3 µM; active compounds read high; galR3 body fused to GalR1 C-terminus
In all, about 360,000 compounds went through this assay and about 1,600 (0.44%) were called active. For the sample, actives were picked, then their nearest neighbours and some compounds at random.
Readout Label: inhibition (%)
Please respond with the number in % and leave the unit unwritten.

For orientation, consider the following solved cases.
[
  {
    "Compound": "CC(C)OC(=O)CC(=O)CC(O)c1cccc([N+](=O)[O-])c1 (stereo not given)",
    "inhibition [%]": -6.46
  },
  {
    "Compound": "CCCn1nc(C(=O)NNC(=O)CSCC(=O)Nc2cc(C)on2)c2ccccc2c1=O",
    "inhibition [%]": 21.7
  }
]

Entry Brc1ccc(COCCc2cn(Cc3ccccc3)c3ccccc23)cc1 , Galanin receptor type 3 (Homo sapiens) data, inhibition value: 3.44

Entry C=CC1=CCN(S(=O)(=O)C(C)(C)C)[C@@H]1CCO , Galanin receptor type 3 (Homo sapiens) data, inhibition value: -6.58

Entry COC(=O)C1=C(C)N(Cc2cccc(C(F)(F)F)c2)C(=NCc2ccccc2)NC1c1ccccc1C(F)(F)F (stereo not given) , Galanin receptor type 3 (Homo sapiens) data, inhibition value: -3.46

Entry O=C(NC(Nc1nc2ccc([N+](=O)[O-])cc2s1)(C(F)(F)F)C(F)(F)F)c1ccccc1 , Galanin receptor type 3 (Homo sapiens) data, inhibition value: 20

Entry CCOC(=O)C1CSCCS(=O)(=O)N1Cc1ccc(Cl)cc1 (stereo not given) , Galanin receptor type 3 (Homo sapiens) data, inhibition value: -4.45

Data origin: PubChem BioAssay AID651719
